Recorded values, source paper PMC12248599.

Reported Apical Side 90 min by item:
system: Caco-2 cell monolayer; test: Caco-2 monolayer transport (bioavailability) study, AB and BA directions; format: in vitro ADME, Homo sapiens; details: AB experiment, donor side, S1 (15 mg/mL GSE), 90 min
Marks after values point to notes of the source that are not given here.

Below are worked cases with known answers.
O=C(/C=C/c1ccc(O)c(O)c1)O[C@@H](C(=O)O)[C@@H](O)C(=O)O	0.67 ± 0.07 ^c mg/L
OC[C@H]1O[C@@H](Oc2cc3c(O)cc(O)cc3[o+]c2-c2cc(O)c(O)c(O)c2)[C@H](O)[C@@H](O)[C@@H]1O [D3G, delphinidin-3-O-glucoside]	1.8 ± 0.1 ^b,c mg/L
O=C(O)c1cc(O)c(O)c(O)c1	4.1 ± 0.4 ^c mg/L
O=c1c(O[C@@H]2O[C@H](CO)[C@@H](O)[C@H](O)[C@H]2O)c(-c2ccc(O)c(O)c2)oc2cc(O)cc(O)c12 [Q3G, quercetin-3-glucoside]	0.14 ± 0.01 ^c mg/L
COc1cc(-c2[o+]c3cc(O)cc(O)c3cc2O[C@@H]2O[C@H](CO)[C@@H](O)[C@H](O)[C@H]2O)cc(OC)c1O [M3G, malvidin-3-O-glucoside]	3.2 ± 0.1 ^c mg/L
O=c1c(OC2O[C@H](CO)[C@H](O)[C@H](O)[C@H]2O)c(-c2ccc(O)cc2)oc2cc(O)cc(O)c12 (stereo partly drawn) [K3Gal, kaempferol-3-galactoside]	0.45 ± 0.02 ^c mg/L
COc1cc(-c2[o+]c3cc(O)cc(O)c3cc2O[C@@H]2O[C@H](CO)[C@@H](O)[C@H](O)[C@H]2O)cc(O)c1O [Pet3G, petunidin-3-O-glucoside]	1.2 ± 0.1 ^c mg/L
O=c1c(O[C@@H]2O[C@H](CO)[C@@H](O)[C@H](O)[C@H]2O)c(-c2ccc(O)cc2)oc2cc(O)cc(O)c12 [K3G, kaempferol-3-glucoside]	6.7 ± 0.2 ^b,c mg/L

# input for lookup
Query `COc1cc(C(=O)O)cc(OC)c1O` yields Apical Side 90 min of 0.42 ± 0.03 ^c mg/L
